PROTOCOL_TEXT: Oral half-life
Format: in vivo
RUN_CONDITIONS: monkey, plasma, 5 mg/kg
ASSAY_READOUT: half-life

C[C@H](NC(=O)c1c(N)nn2cccnc12)c1cc2cccc(C#Cc3cnn(C)c3)c2c(=O)n1-c1ccccc1; ~10.2 h

###

TARGET: PI3K α (Homo sapiens (Human), UniProt P42336)
Sequence (P42336 whole entry, one chain of several): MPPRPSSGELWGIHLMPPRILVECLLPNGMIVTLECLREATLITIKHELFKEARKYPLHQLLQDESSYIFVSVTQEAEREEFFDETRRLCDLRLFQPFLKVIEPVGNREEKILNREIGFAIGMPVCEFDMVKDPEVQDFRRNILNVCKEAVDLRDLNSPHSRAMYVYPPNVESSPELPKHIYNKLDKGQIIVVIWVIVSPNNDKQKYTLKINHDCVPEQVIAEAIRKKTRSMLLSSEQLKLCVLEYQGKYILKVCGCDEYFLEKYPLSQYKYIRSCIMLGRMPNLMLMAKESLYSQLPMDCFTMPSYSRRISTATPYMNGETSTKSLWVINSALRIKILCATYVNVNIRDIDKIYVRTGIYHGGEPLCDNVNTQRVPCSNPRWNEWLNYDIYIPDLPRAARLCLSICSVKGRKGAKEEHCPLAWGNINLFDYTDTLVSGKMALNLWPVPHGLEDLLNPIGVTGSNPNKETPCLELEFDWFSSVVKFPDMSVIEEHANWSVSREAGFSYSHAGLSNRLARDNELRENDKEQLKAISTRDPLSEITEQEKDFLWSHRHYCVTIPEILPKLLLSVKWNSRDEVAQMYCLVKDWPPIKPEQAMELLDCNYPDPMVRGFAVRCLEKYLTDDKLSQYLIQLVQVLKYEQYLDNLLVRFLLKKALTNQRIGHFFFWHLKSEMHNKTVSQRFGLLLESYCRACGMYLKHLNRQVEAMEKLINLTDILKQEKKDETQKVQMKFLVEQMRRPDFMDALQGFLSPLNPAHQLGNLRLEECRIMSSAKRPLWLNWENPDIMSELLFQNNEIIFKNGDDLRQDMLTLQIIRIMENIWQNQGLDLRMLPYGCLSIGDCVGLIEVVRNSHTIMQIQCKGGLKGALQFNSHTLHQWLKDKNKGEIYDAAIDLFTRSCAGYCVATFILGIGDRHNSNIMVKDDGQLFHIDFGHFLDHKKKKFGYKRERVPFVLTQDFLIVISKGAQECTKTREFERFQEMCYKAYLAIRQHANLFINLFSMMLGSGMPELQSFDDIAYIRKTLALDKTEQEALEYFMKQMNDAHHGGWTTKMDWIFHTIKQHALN
ASSAY_READOUT: IC50

C[C@H](NC(=O)c1c(N)nn2cccnc12)c1nc2cccc(C#CC(C)(C)C)c2c(=O)n1-c1ccccc1 [Compound 3]; 5 to 10 µM

###

TARGET: PI3K-δ in RAJI cells (Homo sapiens (Human), UniProt O00329)
Sequence (O00329 whole entry): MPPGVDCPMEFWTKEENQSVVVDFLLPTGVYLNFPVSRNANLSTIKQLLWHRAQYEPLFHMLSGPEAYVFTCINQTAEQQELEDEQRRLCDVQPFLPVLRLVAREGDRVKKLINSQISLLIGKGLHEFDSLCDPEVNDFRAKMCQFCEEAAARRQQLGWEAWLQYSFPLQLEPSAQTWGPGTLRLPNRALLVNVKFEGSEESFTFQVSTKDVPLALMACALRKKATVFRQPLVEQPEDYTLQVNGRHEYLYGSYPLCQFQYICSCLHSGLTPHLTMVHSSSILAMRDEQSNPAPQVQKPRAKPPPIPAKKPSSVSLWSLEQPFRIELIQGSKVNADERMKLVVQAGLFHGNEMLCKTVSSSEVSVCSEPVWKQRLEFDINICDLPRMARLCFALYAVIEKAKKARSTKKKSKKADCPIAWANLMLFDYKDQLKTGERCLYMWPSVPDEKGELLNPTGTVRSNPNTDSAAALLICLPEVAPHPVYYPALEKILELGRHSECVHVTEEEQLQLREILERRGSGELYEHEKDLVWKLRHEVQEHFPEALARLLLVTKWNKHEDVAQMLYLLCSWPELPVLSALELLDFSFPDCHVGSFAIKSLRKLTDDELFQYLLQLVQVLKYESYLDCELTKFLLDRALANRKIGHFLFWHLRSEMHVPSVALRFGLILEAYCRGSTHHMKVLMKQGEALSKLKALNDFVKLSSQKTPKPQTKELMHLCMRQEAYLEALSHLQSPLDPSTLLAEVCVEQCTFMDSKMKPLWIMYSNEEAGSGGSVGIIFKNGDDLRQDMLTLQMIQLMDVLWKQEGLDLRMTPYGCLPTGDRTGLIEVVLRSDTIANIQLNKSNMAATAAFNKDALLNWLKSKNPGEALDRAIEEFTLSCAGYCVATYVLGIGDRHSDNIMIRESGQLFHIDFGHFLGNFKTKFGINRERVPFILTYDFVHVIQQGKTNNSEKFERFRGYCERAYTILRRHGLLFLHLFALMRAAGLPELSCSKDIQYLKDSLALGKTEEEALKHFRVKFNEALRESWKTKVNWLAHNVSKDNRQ
Sequence (P27986 whole entry partner): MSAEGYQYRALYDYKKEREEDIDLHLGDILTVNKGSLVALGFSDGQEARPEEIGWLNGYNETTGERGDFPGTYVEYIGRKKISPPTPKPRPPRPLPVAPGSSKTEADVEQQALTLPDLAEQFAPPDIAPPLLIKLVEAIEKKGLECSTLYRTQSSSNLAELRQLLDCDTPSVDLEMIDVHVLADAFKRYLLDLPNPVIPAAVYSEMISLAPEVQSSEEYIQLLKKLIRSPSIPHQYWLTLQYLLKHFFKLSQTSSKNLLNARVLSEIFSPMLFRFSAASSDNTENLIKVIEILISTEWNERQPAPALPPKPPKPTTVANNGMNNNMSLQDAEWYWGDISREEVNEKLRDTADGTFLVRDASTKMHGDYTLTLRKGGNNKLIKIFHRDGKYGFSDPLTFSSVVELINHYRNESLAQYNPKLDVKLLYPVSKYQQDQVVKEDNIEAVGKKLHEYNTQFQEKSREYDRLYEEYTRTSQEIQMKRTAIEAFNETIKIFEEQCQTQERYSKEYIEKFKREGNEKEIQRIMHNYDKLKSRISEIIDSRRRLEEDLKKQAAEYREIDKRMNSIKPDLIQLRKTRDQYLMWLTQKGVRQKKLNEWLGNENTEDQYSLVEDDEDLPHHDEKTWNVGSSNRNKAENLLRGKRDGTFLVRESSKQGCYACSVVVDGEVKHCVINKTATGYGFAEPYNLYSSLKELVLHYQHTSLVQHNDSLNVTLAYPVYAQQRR
PROTOCOL_TEXT: RAJI p110 δ assay (phospho-AKT, anti-human IgM stimulated)
pIC50: −log10 of the molar value.
ASSAY_READOUT: pIC50

C[C@H](NC(=O)c1c(N)nn2cccnc12)c1nc2cccc(C#CC(C)(C)C)c2c(=O)n1-c1ccccc1 [Compound 3]; 5.00 to 6.00

###

PROTOCOL_TEXT: Oral half-life
Format: in vivo
RUN_CONDITIONS: rat, plasma, 7.5 mg/kg
ASSAY_READOUT: half-life

C[C@H](NC(=O)c1c(N)nn2cccnc12)c1cc2cccc(C#Cc3cnn(C)c3)c2c(=O)n1-c1ccccc1; ~3.3 h

###

TARGET: PI3K γ (Homo sapiens (Human), UniProt P48736)
Sequence (P48736 whole entry): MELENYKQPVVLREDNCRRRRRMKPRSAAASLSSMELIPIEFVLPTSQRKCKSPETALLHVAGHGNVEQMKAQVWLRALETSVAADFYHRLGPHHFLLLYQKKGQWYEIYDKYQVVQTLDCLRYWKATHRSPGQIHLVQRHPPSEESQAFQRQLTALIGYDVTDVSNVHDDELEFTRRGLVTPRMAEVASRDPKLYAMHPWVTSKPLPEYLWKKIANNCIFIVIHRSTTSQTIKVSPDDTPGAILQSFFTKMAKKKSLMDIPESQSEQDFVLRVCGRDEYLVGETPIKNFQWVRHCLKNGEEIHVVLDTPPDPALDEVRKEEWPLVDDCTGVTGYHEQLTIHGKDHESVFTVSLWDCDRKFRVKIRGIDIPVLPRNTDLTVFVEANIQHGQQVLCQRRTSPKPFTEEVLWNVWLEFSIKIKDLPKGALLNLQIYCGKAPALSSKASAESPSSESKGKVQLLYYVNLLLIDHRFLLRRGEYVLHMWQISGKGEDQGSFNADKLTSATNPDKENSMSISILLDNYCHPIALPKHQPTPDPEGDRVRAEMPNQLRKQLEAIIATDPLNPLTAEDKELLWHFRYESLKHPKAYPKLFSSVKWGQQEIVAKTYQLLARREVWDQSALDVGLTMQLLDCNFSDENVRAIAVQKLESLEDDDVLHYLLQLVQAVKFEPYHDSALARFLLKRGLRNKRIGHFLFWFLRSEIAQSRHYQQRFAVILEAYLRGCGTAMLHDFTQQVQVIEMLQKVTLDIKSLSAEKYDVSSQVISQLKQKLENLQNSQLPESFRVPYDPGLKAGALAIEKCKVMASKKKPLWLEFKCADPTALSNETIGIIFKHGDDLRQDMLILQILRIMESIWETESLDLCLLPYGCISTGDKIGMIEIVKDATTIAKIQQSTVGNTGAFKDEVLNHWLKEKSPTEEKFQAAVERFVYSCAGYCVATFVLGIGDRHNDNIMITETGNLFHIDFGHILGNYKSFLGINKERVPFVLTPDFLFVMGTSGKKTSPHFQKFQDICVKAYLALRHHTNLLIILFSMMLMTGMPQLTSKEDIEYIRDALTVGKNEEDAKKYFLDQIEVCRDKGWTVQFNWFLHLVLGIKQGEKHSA
pIC50: −log10 of the molar value.
ASSAY_READOUT: pIC50

C[C@H](NC(=O)c1c(N)nn2cccnc12)c1nc2cccc(C#CC(C)(C)C)c2c(=O)n1-c1ccccc1; 5.30 to 6.00
